FYI, the data here is from paper PMC10398856.

Could you please report measured pEC50 for the items listed next?
system: SARS-CoV-2; assay: microbe, parasite or virus in culture; assay type: cell-based; conditions: Severe acute respiratory syndrome coronavirus 2, 48 h, read-out: EC50, antiviral effect on SARS-CoV-2
pEC50: −log10 of the molar value.

# example entries with known answers
O=c1cc(OCCCOc2ccnc(SCc3ccc(F)cc3)n2)c2ccccc2o1: < 4.30
O=c1cc(OCCOc2ccnc(SCc3ccc(Cl)cc3)n2)c2ccccc2o1: < 4.30
O=c1cc(OCCCOc2ccnc(SCc3ccc(F)cc3)n2)c2cc(F)ccc2o1: 4.84
Cc1cccc(CSc2nccc(OCCOc3cc(=O)oc4ccc(F)cc34)n2)c1: < 4.30
O=c1cc(OCCOc2ccnc(SCc3ccc(F)cc3)n2)c2ccccc2o1: < 4.30
Cc1cccc(CSc2nccc(OCCOc3cc(=O)oc4ccccc34)n2)c1: 5.18

Count: 3. Required value per item: pEC50.
1. Cc1cccc(CSc2nccc(OCCCOc3cc(=O)oc4ccccc34)n2)c1
2. Cc1cccc(CSc2nccc(OCCCOc3cc(=O)oc4ccc(F)cc34)n2)c1
3. O=c1cc(OCCOc2ccnc(SCc3ccc(F)cc3)n2)c2cc(F)ccc2o1

< 4.30
< 4.30
< 4.30

---

assay: in vivo; details: male, Wistar Albino, rat, po, 10 mg/kg
READOUT LABEL: half-life
Answers without a unit are incomplete; give the number and then its unit.

Fill in reported half-life for this entry: O=c1cc(OCCCOc2ccnc(SCc3ccc(F)cc3)n2)c2cc(F)ccc2o1 [5d] 73.3 h

---

assay: in vivo; conditions: male, Wistar Albino, rat, po, 10 mg/kg
READOUT LABEL: Cmax (ng/mL)
Give bare numbers, in ng/mL.

Recall and state the measured Cmax for "O=c1cc(OCCCOc2ccnc(SCc3ccc(F)cc3)n2)c2cc(F)ccc2o1" . 220
